Each entry below lists one item and its recorded IC50 value.
# system-tested: purified human activated protein C (Homo sapiens)
# Sequence (P04070 212-450 limits assumed): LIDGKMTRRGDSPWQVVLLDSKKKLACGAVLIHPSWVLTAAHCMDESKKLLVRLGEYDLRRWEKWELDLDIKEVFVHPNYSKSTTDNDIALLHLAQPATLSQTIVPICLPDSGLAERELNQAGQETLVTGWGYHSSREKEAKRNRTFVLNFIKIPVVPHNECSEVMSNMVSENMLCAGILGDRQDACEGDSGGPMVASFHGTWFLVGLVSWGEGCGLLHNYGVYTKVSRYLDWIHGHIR
# Sequence (P04070 43-197 partner limits assumed): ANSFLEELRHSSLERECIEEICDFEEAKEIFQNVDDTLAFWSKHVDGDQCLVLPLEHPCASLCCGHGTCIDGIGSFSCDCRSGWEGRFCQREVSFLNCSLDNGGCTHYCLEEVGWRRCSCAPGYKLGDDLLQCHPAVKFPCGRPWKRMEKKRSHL
# measurement-notes: Inhibition of activated protein C (pNA substrate S 2366)
# protocol-conditions: enzyme 2 nM, 30 minutes at 20° C.; read-out: CI50 PCa
I only need the number, in nM, no unit after it.

Study these solved cases before continuing.
compound | IC50 [nM]
CC(=O)N[C@H](Cc1ccccc1)C(=O)N(CC(=O)N[C@@H](CCCSC(=N)N)B(O)O)C1CCCC1.CC(=O)O | 593
CC(=O)N[C@H](Cc1ccccc1)C(=O)N(CC(=O)N[C@@H](CCCSC(=N)N)B(O)O)C1CCCCC1.CC(=O)O | 467

Pending compound:
Q) Quick one: give measured IC50 for CC(=O)N[C@H](Cc1ccccc1)C(=O)N1CCC[C@H]1C(=O)N[C@@H](CCCN=C(N)N)B(O)O [DUP 714, Ac-(D)Phe-Pro-Arg-boronic acid, reference compound]
A) 15

---

# system-tested: purified human urokinase (Homo sapiens)
# Construct: purchased Choay
# measurement-notes: Inhibition of urokinase (pNA substrate S 2444)
# Type: biochemical
# protocol-conditions: enzyme 2 nM, 30 minutes at 20° C.; read-out: CI50 Urokinase
metric: IC50 (nM)
The response must be a number in nM with no trailing unit.

Please review the following examples before continuing.
compound | unit-label | recorded-value
CC(=O)N[C@H](Cc1ccccc1)C(=O)N(CC(=O)N[C@@H](CCCSC(=N)N)B(O)O)C1CCCCC1.CC(=O)O [Example 6] | nM | 1510
CC(=O)N[C@H](Cc1ccccc1)C(=O)N(CC(=O)N[C@@H](CCCSC(=N)N)B(O)O)C1CCCC1.CC(=O)O [Example 2] | nM | 2500

Proceeding to the next compound to report its IC50.
Q) Fill in: IC50 on purified human urokinase (Homo sapiens), entry CC(=O)N[C@H](Cc1ccccc1)C(=O)N1CCC[C@H]1C(=O)N[C@@H](CCCN=C(N)N)B(O)O [DUP 714, Ac-(D)Phe-Pro-Arg-boronic acid, reference compound]
A) 22

---

# system-tested: purified human plasma kallikrein (Homo sapiens, UniProt P03952)
# Construct: purified human plasma kallikrein (2 nM, Calbiochem)
# Sequence (P03952 391-638 limits assumed): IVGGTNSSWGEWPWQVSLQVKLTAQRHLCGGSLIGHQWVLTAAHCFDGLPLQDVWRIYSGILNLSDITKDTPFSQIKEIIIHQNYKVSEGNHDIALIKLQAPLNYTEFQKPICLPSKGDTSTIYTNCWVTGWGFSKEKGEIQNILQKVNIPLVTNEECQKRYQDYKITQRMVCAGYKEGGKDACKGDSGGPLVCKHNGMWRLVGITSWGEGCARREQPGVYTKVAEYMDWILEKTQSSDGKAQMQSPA
# Sequence (P03952 20-390 partner limits assumed): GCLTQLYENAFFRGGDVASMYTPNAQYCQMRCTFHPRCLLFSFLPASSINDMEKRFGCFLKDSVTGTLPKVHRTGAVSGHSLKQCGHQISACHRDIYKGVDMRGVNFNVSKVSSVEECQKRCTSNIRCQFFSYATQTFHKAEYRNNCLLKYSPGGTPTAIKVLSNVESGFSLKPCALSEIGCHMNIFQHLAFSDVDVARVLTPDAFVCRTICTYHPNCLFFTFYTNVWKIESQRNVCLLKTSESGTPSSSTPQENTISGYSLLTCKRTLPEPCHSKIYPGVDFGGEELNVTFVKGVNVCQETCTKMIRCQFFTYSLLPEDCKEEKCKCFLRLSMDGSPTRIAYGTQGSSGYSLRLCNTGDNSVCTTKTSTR
# measurement-notes: Inhibition of plasma kallikrein (pNA substrate S 2302)
# protocol-conditions: enzyme 2 nM, 30 minutes at 20° C.; read-out: CI50 Kalli
metric: IC50 (nM)
Numbers only here, please. The scale is nM.

molecule | system-tested | unit-label | IC50
CC(=O)N[C@H](Cc1ccccc1)C(=O)N(CC(=O)N[C@@H](CCCSC(=N)N)B(O)O)C1CCCCC1.CC(=O)O | purified human plasma kallikrein (Homo sapiens, UniProt P03952) | nM | 181
CC(=O)N[C@H](Cc1ccccc1)C(=O)N(CC(=O)N[C@@H](CCCSC(=N)N)B(O)O)C1CCCC1.CC(=O)O | purified human plasma kallikrein (Homo sapiens, UniProt P03952) | nM | 164

Q) Retrieve IC50 on purified human plasma kallikrein (Homo sapiens, UniProt P03952); query CC(=O)N[C@H](Cc1ccccc1)C(=O)N1CCC[C@H]1C(=O)N[C@@H](CCCN=C(N)N)B(O)O [DUP 714, Ac-(D)Phe-Pro-Arg-boronic acid, reference compound]
A) 6.8

---

# system-tested: purified human activated factor X (Homo sapiens)
# Sequence (P00742 235-488 limits assumed): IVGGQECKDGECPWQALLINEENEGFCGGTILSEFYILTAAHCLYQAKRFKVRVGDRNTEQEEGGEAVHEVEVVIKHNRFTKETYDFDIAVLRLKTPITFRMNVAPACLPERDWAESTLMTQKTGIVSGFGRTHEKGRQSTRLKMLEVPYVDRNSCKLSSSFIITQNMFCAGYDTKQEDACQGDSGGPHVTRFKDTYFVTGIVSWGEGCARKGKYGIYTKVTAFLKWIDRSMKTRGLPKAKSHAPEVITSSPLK
# Sequence (P00742 41-179 partner limits assumed): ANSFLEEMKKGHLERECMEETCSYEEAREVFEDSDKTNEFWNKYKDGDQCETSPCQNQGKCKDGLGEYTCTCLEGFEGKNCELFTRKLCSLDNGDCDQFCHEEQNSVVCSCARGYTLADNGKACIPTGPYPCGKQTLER
# measurement-notes: Inhibition of factor Xa (pNA substrate S 2765)
# protocol-conditions: enzyme 2 nM, 30 minutes at 20° C.; read-out: CI50 FXa
// values below are reported pIC50
For clarity, pIC50 is expressed as the negative log10 of concentration in mol/L.

molecule | recorded-value
CC(=O)N[C@H](Cc1ccccc1)C(=O)N1CCC[C@H]1C(=O)N[C@@H](CCCN=C(N)N)B(O)O [DUP 714, Ac-(D)Phe-Pro-Arg-boronic acid, reference compound] | 7.09

Q) State measured pIC50 of the molecule CC(=O)N[C@H](Cc1ccccc1)C(=O)N(CC(=O)N[C@@H](CCCSC(=N)N)B(O)O)C1CCCCC1.CC(=O)O with purified human activated factor X (Homo sapiens).
A) 4.96

The measurements presented in this section are drawn from patent US5585360A.
